Data provenance: ChEMBL document CHEMBL5046306

Test: Cytotoxicity against human CD45(+/+) leukemia cell derived from PDX-SJBALL020589 assessed as reduction on cell growth after 96 hrs by CyQUANT assay
Type: functional, cell-based
Conditions: CD45(+/+) leukemic cell
Measure: IC50 (nM)
# value in nM; strip the unit string

Value of measured IC50 for the entry CCS(=O)(=O)N1CC(CC#N)(n2cc(-c3nc(Nc4ccc(C(=O)NCCCN5CCN(c6ccc(C7CCC(=O)NC7=O)cc6)CC5)cc4)nc4[nH]ccc34)cn2)C1 (stereo unspecified) : 24

---

Target: Protein cereblon (Homo sapiens)
Sequence (Q96SW2 whole entry): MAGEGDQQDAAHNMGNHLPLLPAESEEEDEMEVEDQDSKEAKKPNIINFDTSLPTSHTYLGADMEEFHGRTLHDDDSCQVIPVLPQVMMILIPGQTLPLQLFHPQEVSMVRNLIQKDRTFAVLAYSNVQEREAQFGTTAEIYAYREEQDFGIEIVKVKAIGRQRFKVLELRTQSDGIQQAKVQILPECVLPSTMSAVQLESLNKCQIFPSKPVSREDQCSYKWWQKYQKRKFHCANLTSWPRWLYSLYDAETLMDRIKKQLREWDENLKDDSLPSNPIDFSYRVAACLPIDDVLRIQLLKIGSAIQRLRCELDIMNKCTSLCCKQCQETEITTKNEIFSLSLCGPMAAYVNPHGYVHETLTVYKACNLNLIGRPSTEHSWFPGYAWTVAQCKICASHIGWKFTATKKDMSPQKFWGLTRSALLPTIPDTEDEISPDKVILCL
Measure: pIC50
Kindly note that pIC50 refers to -log10 of the concentration in mol/L and answer with the value alone.

Value of measured pIC50 for the entry CCS(=O)(=O)N1CC(CC#N)(n2cc(-c3nc(Nc4ccc(C(=O)NCCCCOc5ccc(C6CCC(=O)NC6=O)cc5)cc4)nc4[nH]ccc34)cn2)C1 (stereo unspecified) : 7.71

---

Experiment: Cytotoxicity against human CD45(+/+) leukemia cell derived from PDX-SJBALL047370 assessed as reduction on cell growth after 96 hrs by CyQUANT assay
Format: functional, cell-based
Conditions: CD45(+/+) leukemic cell
Measure: IC50

Value of measured IC50 for the entry CCS(=O)(=O)N1CC(CC#N)(n2cc(-c3nc(Nc4ccc(C(=O)NCCCN5CCN(c6ccc(C7CCC(=O)NC7=O)cc6)CC5)cc4)nc4[nH]ccc34)cn2)C1 (stereo unspecified) : < 0.12 µM

---

Test: Cytotoxicity against human CD45(+/+) leukemia cell derived from PDX-SJBALL003145 assessed as reduction on cell growth after 96 hrs by CyQUANT assay
Format: functional, cell-based
Conditions: CD45(+/+) leukemic cell
pIC50: −log10 of the molar value.
Measure: pIC50

Value of measured pIC50 for the entry CCS(=O)(=O)N1CC(CC#N)(n2cc(-c3nc(Nc4ccc(C(=O)NCCCN5CCN(c6ccc(C7CCC(=O)NC7=O)cc6)CC5)cc4)nc4[nH]ccc34)cn2)C1 (stereo unspecified) : > 6.92

---

Experiment: Cytotoxicity against human CD45(+/+) leukemia cell derived from PDX-SJBALL020100 assessed as reduction on cell growth after 96 hrs by CyQUANT assay
Assay type: functional, cell-based
Settings: CD45(+/+) leukemic cell
Measure: IC50

Value of measured IC50 for the entry CCS(=O)(=O)N1CC(CC#N)(n2cc(-c3nc(Nc4ccc(C(=O)NCCCN5CCN(c6ccc(C7CCC(=O)NC7=O)cc6)CC5)cc4)nc4[nH]ccc34)cn2)C1 (stereo unspecified) : < 120 nM
